These entries and their values trace back to ChEMBL document CHEMBL1764974.

# testTarget: Voltage-gated inwardly rectifying potassium channel KCNH2 (Homo sapiens, UniProt Q12809)
# Sequence (Q12809 whole entry): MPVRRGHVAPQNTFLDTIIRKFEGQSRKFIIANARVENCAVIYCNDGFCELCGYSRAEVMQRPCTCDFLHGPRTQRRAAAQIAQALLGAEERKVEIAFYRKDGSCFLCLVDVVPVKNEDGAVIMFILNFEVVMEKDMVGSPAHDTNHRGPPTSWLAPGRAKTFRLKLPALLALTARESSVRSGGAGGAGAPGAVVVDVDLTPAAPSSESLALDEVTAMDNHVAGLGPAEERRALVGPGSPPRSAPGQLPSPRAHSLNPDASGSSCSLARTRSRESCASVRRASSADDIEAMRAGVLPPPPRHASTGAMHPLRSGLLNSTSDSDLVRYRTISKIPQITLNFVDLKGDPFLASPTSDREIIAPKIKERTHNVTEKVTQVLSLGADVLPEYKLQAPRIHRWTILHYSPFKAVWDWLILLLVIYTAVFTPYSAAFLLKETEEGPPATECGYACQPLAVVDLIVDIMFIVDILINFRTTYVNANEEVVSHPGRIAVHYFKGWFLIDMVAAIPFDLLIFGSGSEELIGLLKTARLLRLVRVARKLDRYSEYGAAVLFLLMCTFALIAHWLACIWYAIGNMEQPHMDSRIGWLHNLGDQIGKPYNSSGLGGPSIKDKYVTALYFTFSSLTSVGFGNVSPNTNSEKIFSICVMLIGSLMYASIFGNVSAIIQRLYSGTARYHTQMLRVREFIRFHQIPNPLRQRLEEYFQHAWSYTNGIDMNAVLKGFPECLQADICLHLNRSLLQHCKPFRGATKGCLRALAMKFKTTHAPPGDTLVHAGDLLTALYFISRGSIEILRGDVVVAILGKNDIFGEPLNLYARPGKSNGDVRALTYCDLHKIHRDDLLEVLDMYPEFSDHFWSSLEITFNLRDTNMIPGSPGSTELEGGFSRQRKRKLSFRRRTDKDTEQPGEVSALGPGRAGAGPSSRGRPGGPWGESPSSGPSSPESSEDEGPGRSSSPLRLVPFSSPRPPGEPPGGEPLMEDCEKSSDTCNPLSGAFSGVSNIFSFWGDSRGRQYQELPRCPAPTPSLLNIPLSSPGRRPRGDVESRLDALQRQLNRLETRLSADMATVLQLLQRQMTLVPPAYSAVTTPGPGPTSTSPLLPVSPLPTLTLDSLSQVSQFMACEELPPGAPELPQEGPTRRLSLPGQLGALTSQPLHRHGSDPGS
reportedProperty: IC50
State the value with its unit after it.

Report IC50 for `O=c1c2ccccc2c(Cc2ccc(Cl)cc2)nn1C[C@H]1CCCN1CCCCc1ccc(OCCCN2CCCCCC2)cc1` tested on Voltage-gated inwardly rectifying potassium channel KCNH2 (Homo sapiens, UniProt Q12809).
50.1 nM

====

# testTarget: Histamine H1 receptor (Homo sapiens, UniProt P35367)
# Sequence (P35367 whole entry): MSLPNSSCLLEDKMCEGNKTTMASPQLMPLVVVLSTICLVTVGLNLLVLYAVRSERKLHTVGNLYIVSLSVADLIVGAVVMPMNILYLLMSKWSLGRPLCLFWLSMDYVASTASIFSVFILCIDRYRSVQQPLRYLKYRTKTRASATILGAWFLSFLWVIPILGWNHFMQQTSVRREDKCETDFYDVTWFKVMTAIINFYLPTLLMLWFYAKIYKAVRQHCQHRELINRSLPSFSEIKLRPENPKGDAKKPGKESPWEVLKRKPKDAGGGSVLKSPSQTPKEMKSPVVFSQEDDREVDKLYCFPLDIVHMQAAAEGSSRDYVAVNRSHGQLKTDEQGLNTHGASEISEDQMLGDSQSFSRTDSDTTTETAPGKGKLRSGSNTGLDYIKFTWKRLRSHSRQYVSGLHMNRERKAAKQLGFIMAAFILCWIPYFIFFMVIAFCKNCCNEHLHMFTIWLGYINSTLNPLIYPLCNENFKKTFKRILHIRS
# assayText: Antagonist activity at human recombinant histamine H1 receptor expressed in intact CHO cells assessed as inhibition of histamine-induced cellular calcium mobilization by FLIPR assay
Under this convention, class 1 denotes Ki strictly below 0.8 nM and class 0 denotes Ki at or above 0.8 nM.

Study these solved cases before continuing.
compound: CN1CCC[C@@H]1Cn1nc(Cc2ccc(F)c(F)c2)c2ccccc2c1=O
testTarget: Histamine H1 receptor (Homo sapiens, UniProt P35367)
labelClass: class 1
--
compound: CN1CCC[C@@H]1Cn1nc(CC2CCCCC2)c2ccccc2c1=O
testTarget: Histamine H1 receptor (Homo sapiens, UniProt P35367)
labelClass: class 0
--
compound: CN1CCCCC(n2nc(Cc3ccc(Cl)cc3)c3ccccc3c2=O)C1 (stereo not given)
testTarget: Histamine H1 receptor (Homo sapiens, UniProt P35367)
labelClass: class 0
--
compound: O=c1c2ccccc2c(Cc2ccc(Cl)cc2)nn1CCNCCCCc1ccc(OCCCN2CCCCCC2)cc1
testTarget: Histamine H1 receptor (Homo sapiens, UniProt P35367)
labelClass: class 0
--
compound: COc1ccc(Cc2nn(C[C@H]3CCCN3CCCCc3ccc(OCCCN4CCCCCC4)cc3)c(=O)c3ccccc23)cc1
testTarget: Histamine H1 receptor (Homo sapiens, UniProt P35367)
labelClass: class 0

Kindly review the next compound as well.
Just wondering, is Ki of `CN1CCC[C@@H]1Cn1nc(CCc2ccccc2)c2ccccc2c1=O` below 0.8 nM?
class 0
